Test system: KBV
protocol_details: Reversal of Pgp-mediated paclitaxel resistance in human KBV cells assessed as cell viability at 10 uM in presence of paclitaxel incubated for 72 hrs by MTT assay
Assay type: cell-based
Respond with 1 (yes) for Activity values of 90% and above, 0 (no) for values below.

Before answering, review these 8 worked examples.
[
  {
    "smi": "CC(C)[C@H](NC(=O)OC(C)(C)C)C(=O)O[C@H]1CC[C@]2(C)[C@H]3C[C@@H](O)[C@@H]4[C@@H]([C@]5(C)CC[C@@H](C(C)(C)O)O5)CC[C@@]4(C)[C@]3(C)CC[C@H]2C1(C)C",
    "class": "1 (yes)"
  },
  {
    "smi": "CC(C)(C)OC(=O)N[C@@H](Cc1ccc(OC(C)(C)C)cc1)C(=O)O[C@H]1CC[C@]2(C)[C@H]3C[C@@H](O)[C@@H]4[C@@H]([C@]5(C)CC[C@H](C(C)(C)O)O5)CC[C@@]4(C)[C@]3(C)CC[C@H]2C1(C)C",
    "class": "0 (no)"
  },
  {
    "smi": "CC(C)(O)[C@@H]1CC[C@@](C)([C@H]2CC[C@]3(C)[C@@H]2[C@H](O)C[C@@H]2[C@@]4(C)CC[C@H](O)C(C)(C)[C@@H]4CC[C@]23C)O1",
    "class": "0 (no)"
  },
  {
    "smi": "CC(C)(O)[C@H]1CC[C@@](C)([C@H]2CC[C@]3(C)[C@@H]2[C@H](O)C[C@@H]2[C@@]4(C)CC[C@H](OC(=O)[C@@H](N)CCC(=O)O)C(C)(C)[C@@H]4CC[C@]23C)O1",
    "class": "0 (no)"
  },
  {
    "smi": "CC(C)(O)[C@H]1CC[C@@](C)([C@H]2CC[C@]3(C)[C@@H]2[C@H](O)C[C@@H]2[C@@]4(C)CC[C@H](OC(=O)[C@@H](N)CC(=O)O)C(C)(C)[C@@H]4CC[C@]23C)O1",
    "class": "0 (no)"
  },
  {
    "smi": "CC(C)(O)[C@@H]1CC[C@@](C)([C@H]2CC[C@]3(C)[C@@H]2[C@H](O)C[C@@H]2[C@@]4(C)CC[C@H](OC(=O)[C@@H](N)CCCCN)C(C)(C)[C@@H]4CC[C@]23C)O1",
    "class": "0 (no)"
  },
  {
    "smi": "C[C@@H](OCc1ccccc1)[C@H](NC(=O)OC(C)(C)C)C(=O)O[C@H]1CC[C@]2(C)[C@H]3C[C@@H](O)[C@@H]4[C@@H]([C@]5(C)CC[C@H](C(C)(C)O)O5)CC[C@@]4(C)[C@]3(C)CC[C@H]2C1(C)C",
    "class": "1 (yes)"
  },
  {
    "smi": "CC(C)(O)[C@@H]1CC[C@@](C)([C@H]2CC[C@]3(C)[C@@H]2[C@H](O)C[C@@H]2[C@@]4(C)CC[C@H](OC(=O)CN)C(C)(C)[C@@H]4CC[C@]23C)O1",
    "class": "0 (no)"
  }
]

Attention now turns to another entry.
Q. Item "CC(C)(C)OC(=O)N[C@@H](Cc1cn(C(=O)OC(C)(C)C)c2ccccc12)C(=O)O[C@H]1CC[C@]2(C)[C@H]3C[C@@H](O)[C@@H]4[C@@H]([C@]5(C)CC[C@H](C(C)(C)O)O5)CC[C@@]4(C)[C@]3(C)CC[C@H]2C1(C)C" with Activity of 90% or above?
A. 1 (yes)
